Entry source: PubChem BioAssay

- assayProcedure: inhibitors of TNFa-induced NFkB p65 translocation, primary screen, imaging, HUVEC, MLSMR starter and 10KST1 sets (AID 438);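 further: compound added about 3h40 before a 20 min TNFalpha stimulation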
- reportedConditions: HUVEC TNFa-induced p65 nuclear translocation; measured here: nuclei count (cytotoxicity indicator), at 2.08 µM
reportedProperty: cell count

>  <compound>
O=P(CCNCc1ccco1)(c1ccccc1)c1ccccc1

>  <value>
322

$$$$
>  <compound>
COc1ccccc1CN(Cc1nc2ccccc2c(=O)[nH]1)C(=O)Nc1ccccc1

>  <value>
733

$$$$
>  <compound>
COc1ccc(CCNc2oc(Cc3cccc4ccccc34)nc2C#N)cc1OC

>  <value>
718

$$$$
>  <compound>
COc1ccc(CN2CC(C(=O)NCCCOC(C)C)CC2=O)cc1 (stereo unspecified)

>  <value>
766

$$$$
>  <compound>
CC1=Nn2c(nnc2-c2cc(-c3ccccc3)n[nH]2)SC1

>  <value>
574

$$$$
>  <compound>
O=C(O)c1cccc(CN2C(=O)SC(Nc3ccccc3)C2=O)c1 (stereo unspecified)

>  <value>
510

$$$$
>  <compound>
CCCC1CC(C)(C(=O)Cn2[nH]c(=O)ccc2=O)OC1=O (stereo unspecified)

>  <value>
580

$$$$
>  <compound>
COc1cc(CC(=O)NCc2ccc3c(c2)OCO3)cc(OC)c1OC

>  <value>
698

$$$$
>  <compound>
O=C(NC(C(=O)c1ccccc1)n1ccc(=O)[nH]c1=O)c1ccccc1 (stereo unspecified)

>  <value>
596

$$$$
>  <compound>
c1ccc(-c2nnc(SCc3nc4ccccc4[nH]3)o2)cc1

>  <value>
285

$$$$
>  <compound>
CN(C)c1cccc(NC(=O)CCc2ccccc2)c1

>  <value>
503

$$$$
>  <compound>
O=C(NC1CCS(=O)(=O)C1)OC1CCCCC1 (stereo unspecified)

>  <value>
419

$$$$
>  <compound>
COc1ccc(C(C)NC(=O)c2ccoc2C)cc1OC (stereo unspecified)

>  <value>
307

$$$$
>  <compound>
CC(=O)Nc1ccc(NC(=O)C(C)Oc2ccccc2F)cc1 (stereo unspecified)

>  <value>
321

$$$$
>  <compound>
CCOC(=O)c1cc2c(=O)n3ccccc3nc2n(CCCOC)c1=NC(=O)C(C)(C)C

>  <value>
656

$$$$
>  <compound>
Cc1nnc(SCC(=O)NCc2ccc3c(c2)OCO3)s1

>  <value>
418

$$$$
>  <compound>
Cc1ccc(S(=O)(=O)N2CCN(C(=O)N3CCOCC3)C2C)cc1 (stereo unspecified)

>  <value>
469

$$$$
>  <compound>
O=C(C1CCCN1S(=O)(=O)c1cccc2cccnc12)N1CCn2c1nc1ccccc12 (stereo unspecified)

>  <value>
626

$$$$
>  <compound>
CC(C)N(C(=O)COC(=O)c1ccc(O)cc1)C(C)C

>  <value>
467

$$$$
>  <compound>
NS(=O)(=O)c1ccc(NC(=O)N[C@@H](Cc2ccccc2)C(=O)O)cc1

>  <value>
292

$$$$
>  <compound>
CCCn1c2c(c(O)c(C(=O)NC)c1=O)CCCC2

>  <value>
323

$$$$
>  <compound>
COc1ccc(CCNc2oc(-c3ccccc3OC)nc2C#N)cc1

>  <value>
216

$$$$
>  <compound>
CCOC(=O)c1cccc(NC(=O)CSc2nc3ccccc3c(=O)n2CC)c1

>  <value>
360

$$$$
>  <compound>
COc1ccccc1-n1cnc(N)c1C(C)=O

>  <value>
675

$$$$
>  <compound>
CCCCn1c(CN2CCN(c3ccc(F)cc3)CC2)nc2c1c(=O)n(C)c(=O)n2C

>  <value>
574

$$$$
>  <compound>
CCN(CC)c1ccc(C(=O)n2cnc3ccccc32)cc1

>  <value>
461

$$$$
>  <compound>
Cc1cnc(NC(=O)CSc2nc3ccccc3c(=O)[nH]2)s1

>  <value>
281

$$$$
>  <compound>
CCN(Cc1nc2ccccc2c(=O)[nH]1)Cc1nc2cc(OC)c(OC)cc2c(=O)[nH]1

>  <value>
403

$$$$
>  <compound>
O=C(C1CCC(CNS(=O)(=O)c2cccc3cccnc23)CC1)N1CCCC1 (stereo unspecified)

>  <value>
711

$$$$
>  <compound>
COc1ccc(C(=O)COC(=O)CCn2nnc(-c3cccs3)n2)cc1

>  <value>
237

$$$$
>  <compound>
CCCCSc1nc2c(cnn2-c2ccc(Cl)cc2)c(=O)[nH]1

>  <value>
233

$$$$
>  <compound>
O=C1CCC(C(=O)N(Cc2ccco2)C2(C(=O)NC3CCCC3)CCCCC2)N1 (stereo unspecified)

>  <value>
428

$$$$
>  <compound>
CC1=C/C(=C/N(C)c2ccccc2)C(=O)S1

>  <value>
582

$$$$
>  <compound>
Cc1oc(-c2ccccc2F)nc1CS(=O)(=O)CC(=O)N1CCCCCC1

>  <value>
712

$$$$
>  <compound>
O=C(NCc1ccccn1)Nc1ccc2c(c1)OCO2

>  <value>
415

$$$$
>  <compound>
Cc1cc(C)nc(-n2nc(C)cc2NC(=O)c2ccc(Br)o2)n1

>  <value>
442

$$$$
>  <compound>
Cc1ccc(S(=O)(=O)N2CCN(C(=O)CN3CCOCC3)C2C(C)C)cc1 (stereo unspecified)

>  <value>
309

$$$$
>  <compound>
CCC(C)NC(=O)CCNS(=O)(=O)c1ccc(Br)cc1 (stereo unspecified)

>  <value>
605

$$$$
>  <compound>
Cc1ccc(C(O)c2nc3ccccc3n2C(C)C)cc1 (stereo unspecified)

>  <value>
304

$$$$
>  <compound>
CCCn1c(SCC(=O)NC(=O)NCc2ccco2)n[nH]c1=O

>  <value>
424

$$$$
>  <compound>
Cc1cc(C(=O)COC(=O)c2n[nH]c3ccccc23)c(C)n1C

>  <value>
377

$$$$
>  <compound>
CC(C)CNC(=O)C1C2C=CC(C2)C1C(=O)O (stereo unspecified)

>  <value>
456

$$$$
>  <compound>
COc1ccc2cc(CN(CCO)C(=O)c3ccc(Br)cc3)c(=O)[nH]c2c1

>  <value>
333

$$$$
>  <compound>
Cc1ccccc1Cn1ccc(NC(=O)c2cnn3c(C(F)(F)F)cc(-c4ccco4)nc23)n1

>  <value>
568

$$$$
>  <compound>
CCOc1ccccc1C(=O)NCCCn1ccnc1

>  <value>
469

$$$$
>  <compound>
Cc1cc(C)nc(SCc2ccc3nonc3c2)n1

>  <value>
634

$$$$
